- System: Streptococcus pyogenes C203
- EXPERIMENT_DESCRIPTION: MIC, standard broth micro-dilution assay, SPY C203
- Type: cell-based
# Lookup of reported Minimal Inhibitory Concentration (MIC) SPY C203 keyed by entry

{"columns": ["COMPOUND", "RESULT"],
 "data": [
  ["CC(C)CC(C(=O)NC1C(=O)NC(CC(N)=O)C(=O)NC2C(=O)NC3C(=O)NC(C(=O)NC(C(=O)O)c4cc(O)cc(O)c4-c4cc3ccc4O)C(OC3CC(C)(N)C(O)C(C)O3)c3ccc(c(Cl)c3)Oc3cc2cc(c3OC2OC(CO)C(O)C(O)C2OC2CC(C)(N)C(O)C(C)O2)Oc2ccc(cc2Cl)C1O)N(C)C(=S)Nc1ccc([N+](=O)[O-])cc1 (stereo not drawn) [Example 14]", "≤ 0.06"],
  ["CC(C)CC(C(=O)NC1C(=O)NC(CC(N)=O)C(=O)NC2C(=O)NC3C(=O)NC(C(=O)NC(C(=O)O)c4cc(O)cc(O)c4-c4cc3ccc4O)C(OC3CC(C)(N)C(O)C(C)O3)c3ccc(c(Cl)c3)Oc3cc2cc(c3OC2OC(CO)C(O)C(O)C2OC2CC(C)(N)C(O)C(C)O2)Oc2ccc(cc2Cl)C1O)N(C)C(=S)Nc1ccc(N(C)C)cc1 (stereo not drawn) [Example 15]", 0.25]
]}

In plain terms, CC(C)CC(C(=O)NC1C(=O)NC(CC(N)=O)C(=O)NC2C(=O)NC3C(=O)NC(C(=O)NC(C(=O)O)c4cc(O)cc(O)c4-c4cc3ccc4O)C(OC3CC(C)(N)C(O)C(C)O3)c3ccc(c(Cl)c3)Oc3cc2cc(c3OC2OC(CO)C(O)C(O)C2OC2CC(C)(NCc3ccc(-c4ccc(Cl)cc4)cc3)C(O)C(C)O2)Oc2ccc(cc2Cl)C1O)N(C)C(=S)Nc1ccccc1 (stereo not drawn) [Example 22] has a documented Minimal Inhibitory Concentration (MIC) SPY C203 of ≤ .06
